Would you kindly list Urine protein/creatinine ratio for each of these substances?
assay: Tolerability in Sprague-Dawley rats: kidney function (Example 44); format: in vivo; details: 50 mg/kg s.c. twice per week for 6 weeks, urine
Strand notation (5' to 3'): a small letter for the sugar, then the base; units joined by * are phosphorothioate-linked, units joined directly phosphodiester-linked; [ ] holds rarer units or linkages, { } end groups; capitals alone tell only the bases. e = 2'-O-(2-methoxyethyl) (MOE); [5mC] = 5-methylcytosine; d = 2'-deoxy (DNA)

Worked cases, Urine protein/creatinine ratio given:
{"substance": "ISIS 449709: 3-8-3, 4-8-4, 2-10-2, 3-10-3 or 4-10-4 MOE microwalk gapmer (Table 46) (antisense eG*e[5mC]*eA*e[5mC]*dA*dG*dT*dT*dT*d[5mC]*dT*dG*dG*d[5mC]*eA*eG*eG*e[5mC])", "experimental-result": 3.4}
{"substance": "ISIS 449711: 3-8-3, 4-8-4, 2-10-2, 3-10-3 or 4-10-4 MOE microwalk gapmer (Table 46) (antisense eA*e[5mC]*dA*dG*dT*dT*dT*d[5mC]*dT*dG*dG*d[5mC]*eA*eG)", "experimental-result": 7.3}
{"substance": "ISIS 449710: 3-8-3, 4-8-4, 2-10-2, 3-10-3 or 4-10-4 MOE microwalk gapmer (Table 46) (antisense e[5mC]*eA*e[5mC]*dA*dG*dT*dT*dT*d[5mC]*dT*dG*dG*d[5mC]*eA*eG*eG)", "experimental-result": 5.9}

Value sought for every listed substance: Urine protein/creatinine ratio.
1. ISIS 449708: 3-8-3, 4-8-4, 2-10-2, 3-10-3 or 4-10-4 MOE microwalk gapmer (Table 46) (antisense eA*e[5mC]*eA*dG*dT*dT*dT*d[5mC]*dT*dG*dG*e[5mC]*eA*eG)
2. ISIS 449707: 3-8-3, 4-8-4, 2-10-2, 3-10-3 or 4-10-4 MOE microwalk gapmer (Table 46) (antisense e[5mC]*eA*e[5mC]*eA*dG*dT*dT*dT*d[5mC]*dT*dG*dG*e[5mC]*eA*eG*eG)

(A)
1: 5.7; 2: 3.2
